Measured inhibition accompanies every entry in the list below.
- system tested: Serine/threonine-protein kinase 26 (Homo sapiens)
- measurement conditions: at 0.1 µM
- Description: GSK_PKIS: MST4 mean inhibition at 0.1 uM [Nanosyn]
readout label: inhibition (%)

INSERT INTO results (cpd_smiles, measurement_units, reported_result) VALUES
  ('O=S(=O)(CCNCc1ccc(-c2ccc3ncnc(Nc4ccc(OCc5cccc(F)c5)c(Cl)c4)c3c2)o1)c1ccccc1', '%', -1.43),
  ('c1cc(-c2cnn3nc(N4CCOCC4)ccc23)nc(NC2CC2)n1', '%', -0.92),
  ('COc1cc2c(cc1Nc1nc(Nc3ccsc3C(N)=O)c3cc[nH]c3n1)N(C(=O)CN(C)C)CCC2(C)C', '%', 3.1),
  ('CNC(=O)c1cc(-c2ccc(F)cc2)cc(-c2ccc(S(=O)(=O)N3CCCC3)cc2)c1N', '%', -0.65);
